experiment.notes: protein stability index of a GFP-peptide fusion (GPS, HEK-293T) (PSI 1-6); higher = more stable;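 further: 24-mer peptide tiles fused after GFP, lentivirally expressed, FACS-sorted into six equal bins by GFP/DsRed ratio, decoded by Illumina sequencing, PSI is the read-weighted mean bin number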
condition.info: treatment: MLN4924 1 uM, 8 h; c terminus: a fixed tail appended
Param threshold (4) applies to protein stability index; output Satisfied when value >= threshold, Not satisfied when value < threshold.

In [3]: df
Out[3]:
                           seq_string            cat
0  FFVITMIKIVLINSFGAILQGSLF [SLC29A1]  Not satisfied
1     RQERVSLYPFQIHSIALSTFASLI [CDS1]  Not satisfied

[Q] Exam item: decide whether the reported protein stability index for FVSKIRAVINDIANLPVPTIAAID [AUH] is at least 4.
[A] Not satisfied

[Q] Exam item: decide whether the reported protein stability index for AHGADPTHRLKDGSTMLIEAAKGG [ANKRD17] is at least 4.
[A] Satisfied

[Q] Exam item: decide whether the reported protein stability index for QVLVKDFTFEGFSRLRFLNLGRMI [ZER1] is at least 4.
[A] Not satisfied

[Q] Exam item: decide whether the reported protein stability index for VAWNGPRMGDADYLAAWHRLVLPI [HDAC6] is at least 4.
[A] Not satisfied

[Q] Exam item: decide whether the reported protein stability index for QEWSFLPSITRKRRYVASVSLHDR [KLHL12] is at least 4.
[A] Not satisfied

====

experiment.notes: protein stability index of a GFP-peptide fusion (GPS, HEK-293T) (PSI 1-6); higher = more stable
condition.info: treatment: DMSO; c terminus: a fixed tail appended
property.measured: protein stability index
Give the value as a plain number.

Lab note: measured protein stability index of LLNSPPSFVCWSRGFMEMNGRGEL [AUP1] was 2.1

Lab note: measured protein stability index of HLNAIRGLPGSFIKEVQKGGPADL [PDZK1] was 3.56

Lab note: measured protein stability index of IPVLMALSWFILHARYRVIHFIAV [SLC35F2] was 3.09

Lab note: measured protein stability index of RKRLAREMQLSEVQIKTWFQNRRM [VENTX] was 2.67

Lab note: measured protein stability index of RQLTKPRPVILDPADPTGNLGGGD [OAS1] was 4.65

Lab note: measured protein stability index of LRRFVVRTMCAVLGLVARQEDSGL [AUP1] was 2.17

Lab note: measured protein stability index of NVVTCAAGILSNLTCNNYKNKMMV [CTNNB1] was 2.69

Lab note: measured protein stability index of MKGRGQLEKPPAPNQAMVVAAAGD [TBC1D10A] was 5

Lab note: measured protein stability index of DPLSDSDSMTSQAKPEALSSPKFR [ELOA2] was 5.2

Lab note: measured protein stability index of DKDENKLSEASGGRAENGERSDLE [ZC3H15] was 5.45

Lab note: measured protein stability index of MNGEECAEDLRMLDASGEKMNGSH [IKZF1] was 5.15

====

experiment.notes: protein stability index of a GFP-peptide fusion (GPS, HEK-293T) (PSI 1-6); higher = more stable
condition.info: treatment: DMSO; c terminus: a fixed tail appended
property.measured: protein stability index
Give the value as a plain number.

Lab note: measured protein stability index of YFISTVKRSWTSAQNACSEHGATL [CD69] was 2.09

Lab note: measured protein stability index of RLCRLAGASSPAAYDEALAELHAH [ZSWIM9] was 3.29

Lab note: measured protein stability index of MGYMLFNERMLESYLHAKKYLKPS [CARM1] was 2.35
